test system: c-Src; assay: phosphorylation enrichment, bacterial display (enrichment ratio); higher = better substrate or ligand; peptides without Tyr show the background;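 further: 11-residue human phosphosite peptides and single-mutation variants displayed on the E. coli surface, counted by deep sequencing, each peptide's frequency after selection divided by its frequency in the unselected input library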;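 further: frequency after pTyr selection over input frequency; kinase dosed for 20-30% of maximal phosphorylation in three min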
Overview of reported phosphorylation enrichment across a group of sequences:
Quick one: just the number, no unit, thanks!

[[record]]
sequence_text = "EASGIYVKSVI [PATJ_Y396_I400V]"
target_or_system = "c-Src"
observed_measurement = 0.462


// switching to the query sequence
// query // Input: VPLATYMRIFK [RPL21_Y30_YF] . Output its phosphorylation enrichment only.
// result 0.486

###

system: Fer (mouse); assay: phosphorylation enrichment, bacterial display (enrichment ratio); higher = better substrate or ligand; peptides without Tyr show the background
Overview of reported phosphorylation enrichment across a group of sequences:
Quick one: just the number, no unit, thanks!

// query // Input: ILTLKYPIEHG [ACTA1_Y71] . Output its phosphorylation enrichment only.
// result 0.391

// query // Input: MSSHHYDFKKF [ZNF445_Y428_YF] . Output its phosphorylation enrichment only.
// result 0.308

// query // Input: QLQTTYPSSDN [MAX_Y115_N114T] . Output its phosphorylation enrichment only.
// result 0.789

// query // Input: SWVVPYEPPEV [TP53_Y220_V216W] . Output its phosphorylation enrichment only.
// result 0.577
